System: pathogenic bacteria
PROCEDURE_TEXT: MIC by microdilution broth method (NCCLS M7-A4), in vitro antibacterial activity
Type: cell-based
CONDITION_DETAILS: Staphylococcus aureus, Organism A: Staphylococcus aureus OC4172; read-out: MIC
Values of MIC strictly less than 0.2 µg/mL map to 1, and values of at least 0.2 µg/mL map to -1.

Find out if reported MIC for COc1c(N2CCC/C(=C/CN)C2)c(F)cc2c(=O)c(C(=O)O)cn(C3CC3)c12 is less than 0.2 µg/mL
1

* * *

Test system: pathogenic bacteria
PROCEDURE_TEXT: MIC by microdilution broth method (NCCLS M7-A4), in vitro antibacterial activity
Type: cell-based
CONDITION_DETAILS: Streptococcus pneumoniae, Organism C: fluoroquinolone-resistant clinical isolate of Streptococcus pneumoniae (QRDR amino acid substitutions)
Listing of entries alongside the reported MIC.
Hi! Could you send only the number? It should be in µg/mL, unit omitted.

Illustrative cases are given below, each with its answer.
COMPOUND_STRING	QUANTITY_UNIT	MIC
COc1c(N2CCC(=CCN)CC2)c(F)cc2c(=O)c(C(=O)O)cn(C3CC3)c12	µg/mL	2
Cc1c(F)c(N2CCC/C(=C(/Cl)CN)C2)cc2c1c(=O)c(C(=O)O)cn2C1CC1	µg/mL	4
COc1c(N2CC(=C(F)CN)C2)c(F)cc2c(=O)c(C(=O)O)cn(C3CC3)c12	µg/mL	0.5
COc1c(N2CCC(=C(Cl)CN)CC2)c(F)c(C)c2c(=O)c(C(=O)O)cn(C3CC3)c12	µg/mL	2

Report MIC, nothing else, for this molecule: NC/C(Cl)=C1/CCCN(c2c(F)cc3c(=O)c(C(=O)O)cn(C4CC4)c3c2OC(F)F)C1
0.5

Fill in MIC for record C[C@H]1COc2c(N3CCC(=C(Cl)CN)CC3)c(F)cc3c(=O)c(C(=O)O)cn1c23
0.25

Give reported MIC value for CCNCC(F)=C1CCN(c2c(F)cc3c(=O)c(C(=O)O)cn(C4CC4)c3c2OC)CC1
1

* * *

Test system: pathogenic bacteria
PROCEDURE_TEXT: MIC by microdilution broth method (NCCLS M7-A4), in vitro antibacterial activity
Type: cell-based
CONDITION_DETAILS: Streptococcus pneumoniae, Organism C: fluoroquinolone-resistant clinical isolate of Streptococcus pneumoniae (QRDR amino acid substitutions)
Measured MIC values are reported for all entries that follow.
Numeric only. Scale: µg/mL

Some solved cases for reference:
MOLECULE	STUDY_TARGET	MIC [µg/mL]
COc1c(N2CCC/C(=C(\F)CN)C2)c(F)cc2c(=O)c(C(=O)O)cn([C@@H]3C[C@@H]3F)c12 [Compound 405]	pathogenic bacteria	0.25
COc1c(N2CCC/C(=C/CN)C2)c(F)cc2c(=O)c(C(=O)O)cn(C3CC3)c12 [Compound 389]	pathogenic bacteria	1
COc1c(N2CCC(=C(C#N)CN)CC2)c(F)cc2c(=O)c(C(=O)O)cn([C@@H]3C[C@@H]3F)c12 [Compound 439]	pathogenic bacteria	2
Cc1c(F)c(N2CCC/C(=C(\F)CN)C2)cc2c1c(=O)c(C(=O)O)cn2C1CC1 [Compound 424]	pathogenic bacteria	0.5
Cc1c(F)c(N2CCC/C(=C/CN)C2)cc2c1c(=O)c(C(=O)O)cn2C1CC1 [Compound 427]	pathogenic bacteria	4
CC1(C)CN(c2nc3c(cc2F)c(=O)c(C(=O)O)cn3C2CC2)CCC1=C(F)CN [Compound 175]	pathogenic bacteria	2

Give reported MIC value for NCC=C1CCN(c2nc3c(cc2F)c(=O)c(C(=O)O)cn3C2CC2)CC1 [Compound 59]
8

Dear colleague, please send me the reported MIC for CCC(CN)=C1CCN(c2c(F)cc3c(=O)c(C(=O)O)cn(C4CC4)c3c2OC)CC1 [Compound 71] when you can.
0.25

Supply MIC value. Item: N#CC(CN)=C1CCN(c2cc3c(cc2F)c(=O)c(C(=O)O)cn3C2CC2)CC1 [Compound 285]
8

Note MIC for the molecule shown: Cc1c(F)c(N2CCC/C(=C(\Cl)CN)C2)cc2c1c(=O)c(C(=O)O)cn2C1CC1 [Compound 426]
1

Determine from records and report MIC for COc1c(N2CCC/C(=C(\F)CN)C2)c(F)c(C)c2c(=O)c(C(=O)O)cn(C3CC3)c12 [Compound 458]
0.25

Input CN(C)CC(Cl)=C1CCN(c2nc3c(cc2F)c(=O)c(C(=O)O)cn3C2CC2)CC1 [Compound 180] , output reported MIC.
8

For the molecule COc1c(N2CCC(=C(F)CN)CC2)ccc2c(=O)c(C(=O)O)cn(C3CC3)c12 [Compound 10] , give its measured MIC value.
0.5

* * *

Here the recorded MIC is given for each entry.
Test system: pathogenic bacteria
PROCEDURE_TEXT: MIC by microdilution broth method (NCCLS M7-A4), in vitro antibacterial activity
Format: cell-based
CONDITION_DETAILS: Streptococcus pneumoniae, ATCC49619, Organism E: Streptococcus pneumoniae ATCC 49619
Counter-ions that a name gives are not always drawn.
Give the number; µg/mL is assumed, so skip it.

Some entries whose results are on file:
MOLECULE	QUANTITY_UNIT	MIC
CN(C)CC(Cl)=C1CCN(c2cc3c(cc2F)c(=O)c(C(=O)O)cn3C2CC2)CC1 [Compound 298, Trifluoroacetic Acid Salt]	µg/mL	1
NC/C(F)=C1/CCCN(c2nc3c(cc2F)c(=O)c(C(=O)O)cn3C2CC2)C1 [Compound 253, trifluoroacetic acid salt]	µg/mL	0.5
CNCC(Cl)=C1CCN(c2c(F)cc3c(=O)c(C(=O)O)cn(C4CC4)c3c2OC)CC1 [Compound 72, Trifluoroacetic Acid Salt]	µg/mL	0.12
Nc1nc(-n2cc(C(=O)O)c(=O)c3cc(F)c(N4CCC/C(=C(/F)CO)C4)c(Cl)c32)c(F)cc1F [Compound 359, Trifluoroacetate]	µg/mL	1
NC/C(F)=C1/CCCN(c2c(F)cc3c(=O)c(C(=O)O)cn(-c4nc(N)c(F)cc4F)c3c2Cl)C1 [Compound 358, Trifluoroacetate]	µg/mL	0.5
O=C(O)c1cn(C2CC2)c2nc(N3CCC(=C(Cl)CN4CCNCC4)CC3)c(F)cc2c1=O [Compound 292, Trifluoroacetic Acid Salt]	µg/mL	4
NC/C(F)=C1/CCCN(c2cc3c(cc2F)c(=O)c(C(=O)O)cn3C2CC2)C1 [Compound 256, Trifluoroacetic Acid Salt]	µg/mL	0.06

Assign MIC to the following record: CNCC(Cl)=C1CN(c2cc3c(cc2F)c(=O)c(C(=O)O)cn3C2CC2)C1 [Compound 431, trifluoroacetic acid salt]
0.25

* * *

System: pathogenic bacteria
PROCEDURE_TEXT: MIC by microdilution broth method (NCCLS M7-A4), in vitro antibacterial activity
Type: cell-based
CONDITION_DETAILS: Staphylococcus aureus, Organism A: Staphylococcus aureus OC4172; read-out: MIC
// values below are reported MIC
Report as a plain number; the unit µg/mL is understood.

Quickly give me recorded MIC for NC/C(F)=C1/CCCN(c2c(F)cc3c(=O)c(C(=O)O)cn(C4CC4)c3c2OCF)C1
0.25

Determine from records and report MIC for COc1c(N2CCC/C(=C(\Cl)CN)CC2)c(F)cc2c(=O)c(C(=O)O)cn(C3CC3)c12
0.03

* * *

Tested on: pathogenic bacteria
PROCEDURE_TEXT: MIC by microdilution broth method (NCCLS M7-A4), in vitro antibacterial activity
Format: cell-based
CONDITION_DETAILS: Staphylococcus aureus, Organism A: Staphylococcus aureus OC4172; read-out: MIC
Catalogue of MIC values
Write it as a number; the unit µg/mL goes unstated.

COMPOUND	MIC (µg/mL)
COc1c(N2CCC(=C(C#N)CN)CC2)c(F)cc2c(=O)c(C(=O)O)cn([C@@H]3C[C@@H]3F)c12 [Compound 439]	0.06
NC/C=C1/CCCN(c2c(F)cc3c(=O)c(C(=O)O)cn(C4CC4)c3c2OC(F)F)C1 [Compound 396]	0.03
COc1c(N2CCC(=C(Cl)CN)CC2)ccc2c(=O)c(C(=O)O)cn(C3CC3)c12 [Compound 275]	0.03

Return MIC for the following compound: NC/C(F)=C1\CCCN(c2c(F)cc3c(=O)c(C(=O)O)cn(C4CC4)c3c2OC(F)F)C1 [Compound 395]
0.06

Quickly give me recorded MIC for NC/C(F)=C1\CCCN(c2cc3c(cc2F)c(=O)c(C(=O)O)cn3C2CC2)C1 [Compound 382]
0.5

Item NC/C(Cl)=C1/CCCN(c2nc3c(cc2F)c(=O)c(C(=O)O)cn3C2CC2)C1 [Compound 254] : provide MIC
0.06

Give MIC for O=C(O)c1cn(C2CC2)c2nc(N3CCC(=C(Cl)CN4CCCCC4)CC3)c(F)cc2c1=O [Compound 181]
1

Supply reported MIC belonging to this compound: C[C@H]1COc2c(N3CCC/C(=C(/Cl)CN)C3)c(F)cc3c(=O)c(C(=O)O)cn1c23 [Compound 448]
0.25

Please give the documented MIC of COc1c(N2CC(=C(Cl)CO)C2)c(F)cc2c(=O)c(C(=O)O)cn([C@@H]3C[C@@H]3F)c12 [Compound 363]
0.03

Name the recorded MIC of the item Cc1c(F)c(N2CC(=C(Cl)CO)C2)cc2c1c(=O)c(C(=O)O)cn2C1CC1 [Compound 364] in your answer.
0.06

Quote MIC reported for O=C(O)c1cn(-c2ccc(F)cc2F)c2nc(N3CCC(=CCO)CC3)c(F)cc2c1=O [Compound 185] please.
0.12
